tested on: β-galactosidase in CMV-LacZ C2C12 myotubes; test: CMV-LacZ secondary screen in C2C12 myotubes (β-Gal stabilizing assay); format: cell-based, mouse; conditions: 5 uM; C2C12 CMV-LacZ myotubes; fold relative to DMSO
Label -1 if CMV-LACZ in Myotubes, signal relative to DMSO falls below 1; label 1 in every other case.

Entry "CN(CC(=O)Nc1cccc(F)c1)C(=O)c1ccc(-c2ccc(Cl)cc2)o1" : is its CMV-LACZ in Myotubes, signal relative to DMSO no less than 1?
1

Entry "Cc1cccc(Sc2nc(-c3ccccc3)ccc2C#N)c1" : is its CMV-LACZ in Myotubes, signal relative to DMSO no less than 1?
-1

Entry "CCCNC(=S)N1CCC(NC(=O)c2ccc(OC)cc2)CC1" : is its CMV-LACZ in Myotubes, signal relative to DMSO no less than 1?
-1

Entry "COc1cccc(CN2CCN(Cc3ccco3)CC2)c1.O=C(O)C(=O)O" : is its CMV-LACZ in Myotubes, signal relative to DMSO no less than 1?
1

Entry COc1ccccc1N(C(=O)CNC(=O)c1ccco1)C(C(=O)NC1CCCCC1)c1ccncc1 (stereo not drawn) : is its CMV-LACZ in Myotubes, signal relative to DMSO no less than 1?
-1

Entry "Cc1nc(Nc2ccccc2F)c2oc3ccccc3c2n1" : is its CMV-LACZ in Myotubes, signal relative to DMSO no less than 1?
1

Entry "N/C(=N\OC(=O)c1cccc(C(F)(F)F)c1)c1cnccn1" : is its CMV-LACZ in Myotubes, signal relative to DMSO no less than 1?
-1

Entry "COc1ccccc1CC(=O)Nc1cc(S(=O)(=O)N2CCOCC2)ccc1N1CCOCC1" : is its CMV-LACZ in Myotubes, signal relative to DMSO no less than 1?
1

Entry "Cc1noc(C)c1COc1ccc(C(=O)NCCc2ccccn2)cc1" : is its CMV-LACZ in Myotubes, signal relative to DMSO no less than 1?
1

###

tested on: β-galactosidase in CMV-LacZ C2C12 myotubes; experiment: CMV-LacZ secondary screen in C2C12 myotubes (β-Gal stabilizing assay); format: cell-based, mouse; details: 20 uM; C2C12 CMV-LacZ myotubes; fold relative to DMSO
property.name: CMV-LACZ in Myotubes, signal relative to DMSO

Return CMV-LACZ in Myotubes, signal relative to DMSO for the following compound: "O=C(Cn1cccc1C(=O)c1ccccc1)NCCCc1ccccc1"
1.0555

Return CMV-LACZ in Myotubes, signal relative to DMSO for the following compound: "Cn1ccc(C(=O)Nc2cccnc2Cl)n1"
1.0810

Return CMV-LACZ in Myotubes, signal relative to DMSO for the following compound: "Cc1ccc(NS(=O)(=O)c2cccc(C(=O)O)c2)cc1S(=O)(=O)N1CCOCC1"
1.0378

Return CMV-LACZ in Myotubes, signal relative to DMSO for the following compound: "CN(C)CCNc1ncnc2sc(-c3ccccc3)cc12"
0.5748

Return CMV-LACZ in Myotubes, signal relative to DMSO for the following compound: O=C(COc1cc2oc(=O)c3c(c2cc1Cl)CCCC3)NCC1CCC(C(=O)O)CC1 (stereo not drawn)
1.05

Return CMV-LACZ in Myotubes, signal relative to DMSO for the following compound: "CC(C)(CC(=O)O)CC(=O)N1CCCN(c2nccc(C(F)(F)F)n2)CC1"
1.03

Return CMV-LACZ in Myotubes, signal relative to DMSO for the following compound: "Cn1cc(CN(CCO)Cc2cccs2)c(-c2ccccc2F)n1"
0.8518

Return CMV-LACZ in Myotubes, signal relative to DMSO for the following compound: "COc1ccc(S(=O)(=O)N(NC2=NS(=O)(=O)c3ccccc32)C(=O)C(C)C)cc1"
1.087

Return CMV-LACZ in Myotubes, signal relative to DMSO for the following compound: "Cc1ccc2c(c1)/C(=C/c1ccco1)C(=O)N2"
1.1189
